Biological target: T1, wild-type human PTH/PTHrP receptor (hP1R-WT) (human, UniProt Q03431 27-593)
T1 sequence (looked up): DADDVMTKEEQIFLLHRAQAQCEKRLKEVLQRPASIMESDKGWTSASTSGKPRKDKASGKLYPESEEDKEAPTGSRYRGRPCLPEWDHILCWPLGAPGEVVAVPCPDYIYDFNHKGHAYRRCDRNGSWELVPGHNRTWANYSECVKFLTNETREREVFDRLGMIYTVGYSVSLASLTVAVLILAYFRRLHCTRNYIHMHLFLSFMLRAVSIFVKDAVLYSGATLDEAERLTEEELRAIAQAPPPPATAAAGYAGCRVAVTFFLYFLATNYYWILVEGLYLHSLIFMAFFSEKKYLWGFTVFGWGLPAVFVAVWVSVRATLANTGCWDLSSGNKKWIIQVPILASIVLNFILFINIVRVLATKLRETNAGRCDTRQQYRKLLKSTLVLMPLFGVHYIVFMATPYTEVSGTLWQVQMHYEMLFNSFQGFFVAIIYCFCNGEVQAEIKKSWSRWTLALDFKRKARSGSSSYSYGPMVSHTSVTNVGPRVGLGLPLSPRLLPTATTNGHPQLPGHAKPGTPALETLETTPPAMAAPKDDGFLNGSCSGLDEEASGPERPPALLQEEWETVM
Assay: cell-based or functional assay
Square brackets hold non-standard residues; d marks the D form. Ends that are not written are not given here. hArg = N=C(N)NCCCC[C@H](N)C(=O)O; Aib = CC(C)(N)C(=O)O
Measured cAMP EC50 accompanies every entry in the list below.
measured-endpoint: cAMP EC50 (nM)

# binder, measured-endpoint, output-unit, value
measured = [
    ("[Aib]V[Aib]EIQLMHQ[hArg]-NH2 (N-terminus assumed; SMILES CC[C@H](C)[C@H](NC(=O)[C@H](CCC(=O)O)NC(=O)C(C)(C)NC(=O)[C@@H](NC(=O)C(C)(C)N)C(C)C)C(=O)N[C@@H](CCC(N)=O)C(=O)N[C@@H](CC(C)C)C(=O)N[C@@H](CCSC)C(=O)N[C@@H](Cc1c[nH]cn1)C(=O)N[C@@H](CCC(N)=O)C(=O)N[C@@H](CCCCNC(=N)N)C(N)=O, also called 682 [Aib^1,3, M]PTH (1-11); [Aib^1,3,Gln^10,Har^11]PTH(1-11)) [[Aib^1,3,M]PTH(1-11)]", "cAMP EC50", "nM", 2.1),
    ("AVSEIQLXHNLGKHLASVERXQWLRKKLQDVHNY (Nle (norleucine) at 8 and 21; C-terminal amide, also called 92 PTH(1-34); 92.5 PTH(1-34)) [[Nle^8,21,Tyr^34]PTH(1-34)amide (rat sequence)]", "cAMP EC50", "nM", 1.4),
    ("AVAEIQLMHQ[hArg]AKW-NH2 (N-terminus assumed; SMILES CC[C@H](C)[C@H](NC(=O)[C@H](CCC(=O)O)NC(=O)[C@H](C)NC(=O)[C@@H](NC(=O)[C@H](C)N)C(C)C)C(=O)N[C@@H](CCC(N)=O)C(=O)N[C@@H](CC(C)C)C(=O)N[C@@H](CCSC)C(=O)N[C@@H](Cc1c[nH]cn1)C(=O)N[C@@H](CCC(N)=O)C(=O)N[C@@H](CCCCNC(=N)N)C(=O)N[C@@H](C)C(=O)N[C@@H](CCCCN)C(=O)N[C@@H](Cc1c[nH]c2ccccc12)C(N)=O, X = Har; also called [M]PTH(1-14); 621 [M]PTH(1-14)) [[Ala^3,12,Gln^10,Har^11,Trp^14]PTH(1-14)amide]", "cAMP EC50", "nM", 49),
    ("AVSEIQLMHNLGKH-NH2 (also called 521 PTH(1-14)) [native PTH(1-14) (rat sequence, amide)]", "cAMP EC50", "nM", 90000),
    ("[Aib]V[Aib]EIQLMHQ-NH2 (N-terminus assumed; SMILES CC[C@H](C)[C@H](NC(=O)[C@H](CCC(=O)O)NC(=O)C(C)(C)NC(=O)[C@@H](NC(=O)C(C)(C)N)C(C)C)C(=O)N[C@@H](CCC(N)=O)C(=O)N[C@@H](CC(C)C)C(=O)N[C@@H](CCSC)C(=O)N[C@@H](Cc1c[nH]cn1)C(=O)N[C@@H](CCC(N)=O)C(N)=O, also called 684 [Aib^1,3, M]PTH (1-10); [Aib^1,3,M]PTH(1-10)) [[Aib^1,3,Gln^10]PTH(1-10)]", "cAMP EC50", "nM", 100000),
    ("[Aib]V[Aib]EIQLMHQ[hArg]AKW-NH2 (N-terminus assumed; SMILES CC[C@H](C)[C@H](NC(=O)[C@H](CCC(=O)O)NC(=O)C(C)(C)NC(=O)[C@@H](NC(=O)C(C)(C)N)C(C)C)C(=O)N[C@@H](CCC(N)=O)C(=O)N[C@@H](CC(C)C)C(=O)N[C@@H](CCSC)C(=O)N[C@@H](Cc1c[nH]cn1)C(=O)N[C@@H](CCC(N)=O)C(=O)N[C@@H](CCCCNC(=N)N)C(=O)N[C@@H](C)C(=O)N[C@@H](CCCCN)C(=O)N[C@@H](Cc1c[nH]c2ccccc12)C(N)=O, also called 671 [Aib^1,3, M]PTH (1-14); 671 [Aib^1,3M]PTH(1-14)) [[Aib^1,3,M]PTH(1-14)]", "cAMP EC50", "nM", 1.2),
]
